method-description: probe aCHRDL2 binding to arrayed compounds – biochemical, biotinylated probe, 635/667 nm fluorescence, primary screen (AID 1100)
assay-context: small-molecule microarray, higher = more signal
observed-property: composite z-score
No unit in the answer, please; the number alone is enough.

Return reported composite z-score; argument: C=C(/C(=C/C[C@@H](OC(=O)c1ccncc1)c1ccccc1OCCO)c1cnc2ccccc2c1)C(C)C
-0.21

Quick one: composite z-score for [N-]=[N+]=Nc1ccccc1[C@@H]1OC(c2ccc(OCCCO)cc2)=N[C@]1(CCS(=O)(=O)c1ccccc1)C(=O)NCc1ccccc1 ?
1.28

Record request: composite z-score value, item NCCCCCCNC(=O)[C@H]1C[C@H]2C(=O)N3CCC[C@H]3C(=O)N2[C@H]1c1ccc(O)cc1
0.134

* * *

Could you please report measured composite z-score for the items listed next?
Tested on: Chordin-like protein 2 (CHRDL2)
method-description: compounds binding chordin-like 2 – biochemical, small-molecule microarray, 635 nm fluorescence, primary screen (AID 1126);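 note: printed compound slides probed with Chrdl2 protein at 4 µg/mL for 1 h at 4 C; score merges 667 nm emission intensity with signal to noise over three replicate slides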
assay-context: fluorescence 635 nm, higher = more signal
Answer with the value's number alone.

So what's the measured composite z-score for this one? Cc1ccc(-c2cccc(=O)o2)cc1
0.183

Please look up its composite z-score: O=C1OCC=C[C@H]2OC34C=CCN(CCN5CCOCC5)C(=O)[C@H]3N(CCCCCO)C(=O)[C@@H]4[C@@H]12 (stereo not given in full)
0.129

Tell me the measured composite z-score of C=C(CCCC)/C(=C/C[C@H](OC(=O)c1ccncc1)c1ccc(CO)o1)c1cc(C(=O)OC)ccc1OC , please.
0.487

composite z-score lookup needed for CCCC=C(CCC)[C@@H](NC(=O)Cc1ccccc1)c1ccc(C(=O)OC)cc1 , thanks.
0.549

Can you share its composite z-score? I mean this compound: CN(C)C(=O)[C@@]1(CCC(=O)OC(C)(C)C)COC(c2ccc(OCCCO)cc2)=N1
-1.46

Reported composite z-score, compound CCOc1cc(C(O)C2C=CC3C(=O)NC(=O)C3N2Nc2ccccn2)ccc1O (stereo not given) : ____
0.143

Name the recorded composite z-score for COc1ccc([Si](C)(C)[C@H]2[C@H](CCn3cc(CCO)nn3)O[C@@]3(C(=O)N(Cc4cccc(N5C(=O)c6cccc7cccc5c67)c4)c4ccccc43)[C@@H]2C)cc1 .
0.438

Fill blank: measured composite z-score of the compound CN(C)CCCNC(=O)[C@@]1(Cc2ccccc2I)c2ccccc2C(=O)N(Cc2ccccc2Cl)[C@H]1c1ccc(CO)cc1 is ____.
-1.09

Recorded composite z-score of [N-]=[N+]=NCc1ccccc1C[C@]1(C(=O)NCCN2CCOCC2)N=C(c2ccc(OCCCO)cc2)O[C@H]1c1ccccc1 , please.
-1.03

Need composite z-score, item CN(C)C(=O)[C@]1(Cc2ccccc2N=[N+]=[N-])N=C(c2ccc(OCCCO)cc2)O[C@@H]1c1ccccc1CN=[N+]=[N-]
-0.21

* * *

system-under-test: Neurogenic locus notch homolog protein 2 (Homo sapiens) (UniProt Q04721)
Sequence (Q04721 whole entry, looked up): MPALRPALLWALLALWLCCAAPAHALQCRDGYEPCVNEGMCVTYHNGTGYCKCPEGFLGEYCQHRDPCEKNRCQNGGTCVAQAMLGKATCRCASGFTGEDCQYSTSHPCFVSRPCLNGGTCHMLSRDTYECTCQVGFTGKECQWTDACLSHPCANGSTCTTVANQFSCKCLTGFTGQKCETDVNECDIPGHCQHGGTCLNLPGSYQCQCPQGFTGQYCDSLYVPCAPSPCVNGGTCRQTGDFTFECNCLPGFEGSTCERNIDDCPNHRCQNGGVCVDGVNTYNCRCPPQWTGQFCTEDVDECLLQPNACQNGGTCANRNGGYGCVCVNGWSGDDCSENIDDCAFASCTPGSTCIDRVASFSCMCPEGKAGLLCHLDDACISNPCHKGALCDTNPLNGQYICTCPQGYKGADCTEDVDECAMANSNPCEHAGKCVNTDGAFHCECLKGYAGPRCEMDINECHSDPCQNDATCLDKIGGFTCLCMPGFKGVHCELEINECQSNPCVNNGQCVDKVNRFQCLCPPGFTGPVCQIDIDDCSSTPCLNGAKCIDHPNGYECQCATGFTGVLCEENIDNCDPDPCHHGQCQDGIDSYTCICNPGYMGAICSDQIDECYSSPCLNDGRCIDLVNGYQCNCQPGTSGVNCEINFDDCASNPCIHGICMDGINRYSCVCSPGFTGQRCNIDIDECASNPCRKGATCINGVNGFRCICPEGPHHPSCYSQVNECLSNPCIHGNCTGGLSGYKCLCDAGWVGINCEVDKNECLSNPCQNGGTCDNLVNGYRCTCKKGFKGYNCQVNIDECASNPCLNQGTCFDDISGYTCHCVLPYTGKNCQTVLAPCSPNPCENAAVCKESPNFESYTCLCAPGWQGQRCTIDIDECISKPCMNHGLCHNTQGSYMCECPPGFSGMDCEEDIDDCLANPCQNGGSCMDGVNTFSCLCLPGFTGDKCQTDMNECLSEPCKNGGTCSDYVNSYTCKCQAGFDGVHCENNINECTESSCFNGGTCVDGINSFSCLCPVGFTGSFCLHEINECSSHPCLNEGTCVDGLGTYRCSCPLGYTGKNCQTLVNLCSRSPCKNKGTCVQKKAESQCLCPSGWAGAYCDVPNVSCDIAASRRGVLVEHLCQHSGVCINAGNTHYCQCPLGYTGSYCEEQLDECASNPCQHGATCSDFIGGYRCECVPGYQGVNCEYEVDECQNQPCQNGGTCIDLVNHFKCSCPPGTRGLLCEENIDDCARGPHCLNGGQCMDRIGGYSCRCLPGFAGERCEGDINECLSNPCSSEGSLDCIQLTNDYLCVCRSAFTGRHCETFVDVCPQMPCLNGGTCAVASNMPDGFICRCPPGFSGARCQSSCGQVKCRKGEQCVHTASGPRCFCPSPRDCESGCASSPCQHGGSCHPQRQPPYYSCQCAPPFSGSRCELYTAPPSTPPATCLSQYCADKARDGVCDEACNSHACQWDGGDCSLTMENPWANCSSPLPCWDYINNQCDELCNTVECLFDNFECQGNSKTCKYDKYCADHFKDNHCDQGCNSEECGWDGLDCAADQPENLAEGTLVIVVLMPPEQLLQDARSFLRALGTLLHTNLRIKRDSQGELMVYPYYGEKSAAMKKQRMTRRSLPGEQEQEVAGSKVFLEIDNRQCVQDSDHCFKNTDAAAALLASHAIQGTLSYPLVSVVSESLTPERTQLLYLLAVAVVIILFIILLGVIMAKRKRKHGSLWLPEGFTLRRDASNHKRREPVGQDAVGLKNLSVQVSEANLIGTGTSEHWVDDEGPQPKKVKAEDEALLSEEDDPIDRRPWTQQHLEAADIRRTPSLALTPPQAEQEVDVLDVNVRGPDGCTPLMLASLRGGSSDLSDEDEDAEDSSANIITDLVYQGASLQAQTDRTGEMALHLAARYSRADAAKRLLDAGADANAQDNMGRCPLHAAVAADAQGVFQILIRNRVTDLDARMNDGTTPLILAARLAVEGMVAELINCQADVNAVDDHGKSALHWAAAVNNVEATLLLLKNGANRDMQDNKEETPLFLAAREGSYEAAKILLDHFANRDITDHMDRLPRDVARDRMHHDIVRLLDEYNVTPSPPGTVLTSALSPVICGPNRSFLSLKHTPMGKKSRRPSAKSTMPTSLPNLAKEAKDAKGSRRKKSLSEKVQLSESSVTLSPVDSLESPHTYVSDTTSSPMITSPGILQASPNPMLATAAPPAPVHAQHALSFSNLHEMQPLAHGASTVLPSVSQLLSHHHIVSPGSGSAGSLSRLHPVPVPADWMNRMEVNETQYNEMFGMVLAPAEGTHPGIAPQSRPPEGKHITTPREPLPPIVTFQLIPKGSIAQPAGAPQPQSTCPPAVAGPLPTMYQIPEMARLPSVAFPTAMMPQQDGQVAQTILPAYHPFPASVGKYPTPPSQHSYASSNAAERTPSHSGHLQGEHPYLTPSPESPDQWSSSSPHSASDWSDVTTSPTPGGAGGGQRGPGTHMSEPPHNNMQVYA
method-description: small molecules binding Notch2 protein – biochemical, small-molecule microarray, 635 nm fluorescence, stem cell growth factors, primary screen (AID 1073)
assay-context: higher = more signal
observed-property: composite z-score
Reply with the value as a number alone.

# lookup: composite z-score of COC(=O)[C@@]1(Cc2ccccc2)[C@H]2c3cc(C(=O)N4CCCC4)n(CCO)c3C[C@H]2CN1C(=O)c1ccccc1
1.58

I am curious: what composite z-score value has been reported for COc1ccc(C#Cc2ccc3c(c2)[C@]2(C(=O)N3)[C@H](C(=O)O)[C@H]3C(=O)O[C@H](c4ccccc4)[C@H](c4ccccc4)N3[C@@H]2c2ccc(OCCO)cc2)cc1 ?
0.357

Form field: reported composite z-score of [N-]=[N+]=NCc1ccccc1C[C@]1(C(=O)NCCN2CCOCC2)COC(c2ccc(OCCCO)cc2)=N1
0.973

Which value of composite z-score has been reported for Cc1ccc(S[C@]2(C(=O)O)CC(=O)N(C3CCCCC3)[C@@H]2c2ccc(CO)cc2)cc1 in the records?
0.555

Given COC(=O)[C@@]1(Cc2ccc(OC)cc2)[C@H]2c3cc(C(=O)N4CCCC4)n(Cc4ccc(C)o4)c3C[C@H]2CN1C(=O)c1ccccc1 , state its recorded composite z-score.
1.62

Requested field: composite z-score. Item: C[C@@H]1ON(c2ccccc2)[C@H](c2ccccc2)[C@H]1C(=O)N1C(=O)OC[C@H]1Cc1ccccc1
0.844

# input compound: COCCOC(=O)N1C(=O)[C@@]2(c3cc(C#Cc4ccc(OC)cc4)ccc31)[C@H](C(N)=O)[C@H]1C(=O)O[C@H](c3ccccc3)[C@H](c3ccccc3)N1[C@@H]2c1ccc(OCCO)cc1 ; wanted: its composite z-score
1.17

For the compound shown here, COCCCNC(=O)[C@@]1(C)c2ccccc2C(=O)N(c2ccc(C)cn2)[C@H]1c1ccc(CO)cc1 , give the reported composite z-score.
-1.15

Value lookup for composite z-score; key = CC(C)NC(=O)[C@@H]1c2ccccc2C(=O)N(Cc2cc(C(F)(F)F)cc(C(F)(F)F)c2)[C@H]1c1ccc(CO)cc1
0.805

What composite z-score value was documented for this compound, C=C(CCCC)/C(=C/C[C@@H](OC(=O)c1ccncc1)c1ccccc1OCCO)c1cc(C(=O)OC)ccc1OC ?
0.791

Query (compound): C=CCN1C(=O)[C@@]2(O[C@@H](CCO)[C@H]([Si](C)(C)c3ccc(OC)cc3)[C@H]2C)c2cc(NC(=O)[C@H](C)O)ccc21 ; field requested: composite z-score
0.503

Find the recorded composite z-score belonging to CN(C)CCCCCCNC(=O)[C@@H]1C[C@@H]2C(=O)NCC(=O)N2[C@@H]1c1ccc(O)cc1 and report it.
0.194

Recorded composite z-score for COCCCNC(=O)[C@@]1(Cc2ccccc2)COC(c2ccc(OCCCO)cc2)=N1 , please?
0.694

* * *

Tested on: Neuregulin-1 EGF-like domain
method-description: small molecules binding NRG1 EGF domain – biochemical, small-molecule microarray, 635 nm fluorescence, primary screen (AID 1081);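 note: binding of the protein to compounds printed on small-molecule microarray slides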
assay-context: higher = more signal
Given measured composite z-score, output true if it is greater than or equal to -0.04 and false if not.

Tell me whether composite z-score is at least -0.04 here: NC(=O)NCC#Cc1ccc2c(c1)[C@]1(C(=O)N2)[C@H](c2ccc(OCCO)cc2)N2[C@H](c3ccccc3)[C@H](c3ccccc3)OC(=O)[C@H]2[C@@H]1C(=O)N1CCCCCCC1
true

hey, is composite z-score for this one >= -0.04? CCOC(=O)C[C@H]1[C@H](OC(=O)c2ccccc2-c2ccccc2)[C@@H](NC(=O)c2ccccc2)c2cc(OCCCO)ccc2N1C(=O)Cc1ccc(OC)cc1
false

# bool: composite z-score of COC(=O)[C@@]1(Cc2ccccc2N=[N+]=[N-])N=C(c2ccc(OCCCO)cc2)O[C@H]1c1ccccc1 >= -0.04
true

Assess whether reported composite z-score for C[C@]12C(=O)N(CCCCCO)[C@@H]3C(=O)N(c4ccc(Cl)cc4)CC=CC31O[C@@H]1/C=C\CCCOC(=O)C12 (stereo partly specified) sits at -0.04 or higher.
true

Decide: composite z-score of O=C1O[C@H](c2ccccc2)[C@H](c2ccccc2)N2[C@H]1[C@@H](C(=O)N1CCN(c3ncccn3)CC1)[C@]1(C(=O)Nc3ccc(C#CCCO)cc31)[C@H]2c1ccccc1OCCO >= -0.04?
true

Entry C=CCNC(=O)[C@@H]1[C@H]2C(=O)O[C@H](c3ccccc3)[C@H](c3ccccc3)N2[C@H](c2ccc(O)cc2)[C@@]12C(=O)Nc1ccc(C#CCCO)cc12 : is its composite z-score no less than -0.04?
false

State whether the measured composite z-score reaches -0.04, counting equality as reaching it, for O=C1N(Cc2ccccc2)c2ccccc2[C@H]2OC(c3ccc(OCCCO)cc3)=N[C@@]12CCS(=O)(=O)c1ccccc1
true

State whether the measured composite z-score reaches -0.04, counting equality as reaching it, for COc1cc(C(O)C2C=CC3C(=O)N(C)C(=O)C3N2NC(=O)OC(C)(C)C)cc(OC)c1OC (stereo unspecified)
true

Determine whether this compound has composite z-score no lower than -0.04: CC(C)(C)OC(=O)CC[C@]1(C(=O)O)COC(c2ccc(OCCCO)cc2)=N1
true

Has C=CC[C@]1(C(=O)N2CCOCC2)N=C(c2ccc(OCCCO)cc2)O[C@H]1c1ccccc1CN=[N+]=[N-] a recorded composite z-score greater than or equal to -0.04?
true

State whether the measured composite z-score reaches -0.04, counting equality as reaching it, for N#Cc1ccc(NN2C(C(O)c3ccco3)C=CC3C(=O)N(c4ccccc4)C(=O)C32)cc1 (stereo unspecified)
true

Entry COC(=O)[C@H]1N=C(c2ccc(OCCCO)cc2)O[C@H]1c1ccccc1CN=[N+]=[N-] : is its composite z-score no less than -0.04?
true

Hi, just wondering whether COCCCNC(=O)[C@@H]1c2ccccc2C(=O)N(c2ccc(C)cn2)[C@H]1c1ccc(CO)cc1 shows composite z-score of -0.04 or higher.
false

Could you tell me if the measured composite z-score of COc1ccccc1CN1C(=O)c2ccccc2[C@@]2(Cc3ccccc3N(C3CC3)C2=O)[C@@H]1c1ccc(CO)cc1 reaches -0.04 or more?
false

Is reported composite z-score greater than or equal to -0.04 here: NC(=O)NCC#Cc1ccc2c(c1)[C@]1(C(=O)N2)[C@H](c2ccc(O)cc2)N2[C@H](c3ccccc3)[C@H](c3ccccc3)OC(=O)[C@H]2[C@@H]1C(=O)NC[C@H](O)c1ccccc1
false

composite z-score >= -0.04 for Cc1ccccc1C(O)C1C=CC2C(=O)N(C)C(=O)C2N1Nc1ccc([N+](=O)[O-])cc1[N+](=O)[O-] (stereo unspecified) ?
true
